These entries and their values trace back to patent US20060281071A1.

# SUBJECT_OF_TEST: mSCD2 (Mus musculus)
# Sequence (P13011 1-358): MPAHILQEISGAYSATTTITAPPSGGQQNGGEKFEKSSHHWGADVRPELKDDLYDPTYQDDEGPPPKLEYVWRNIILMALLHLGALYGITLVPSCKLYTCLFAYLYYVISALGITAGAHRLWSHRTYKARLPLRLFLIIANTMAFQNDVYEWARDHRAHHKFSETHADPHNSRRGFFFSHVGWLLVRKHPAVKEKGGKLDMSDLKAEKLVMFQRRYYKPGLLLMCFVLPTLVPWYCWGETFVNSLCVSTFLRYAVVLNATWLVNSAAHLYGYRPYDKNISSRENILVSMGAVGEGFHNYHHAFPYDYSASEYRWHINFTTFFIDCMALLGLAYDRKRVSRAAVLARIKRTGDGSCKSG
# ASSAY_INFO: Conversion of saturated fatty acids to Δ9 monounsaturated fatty acids in ole1 yeast L8-14C expressing mSCD2 (GLC)
# Type: cell-based
# Design: Cloning of the full-length human and mouse SCD cDNAs: The full coding region of human SCDs; expressed in transfected cells; host or cells: Saccharomyces cerevisiae L8-14C (ole1 disruptant), vector p426GPD
# SETTINGS: exogenous fatty acid 0.2 mM, 1% tergitol NP-40, yeast cultured 2 days (FIG. 2)
OBSERVED_PROPERTY: conversion of exogenous saturated fatty acid to Δ9 monounsaturated fatty acid (%)

{"RECORD_SMILES": "CCCCCCCCCCCCCCCCC(=O)O", "UNIT_STRING": "%", "TEST_RESULT": 31}
{"RECORD_SMILES": "CCCCCCCCCCCCC(=O)O", "UNIT_STRING": "%", "TEST_RESULT": 14}
{"RECORD_SMILES": "CCCCCCCCCCCCCC(=O)O", "UNIT_STRING": "%", "TEST_RESULT": 14}
